Origin of measurements: patent US20250074873A1

# Tested on: 5-HT2B receptor (Homo sapiens, UniProt P41595)
# Construct: host or cells: CHO-K1
# Sequence (P41595 whole entry): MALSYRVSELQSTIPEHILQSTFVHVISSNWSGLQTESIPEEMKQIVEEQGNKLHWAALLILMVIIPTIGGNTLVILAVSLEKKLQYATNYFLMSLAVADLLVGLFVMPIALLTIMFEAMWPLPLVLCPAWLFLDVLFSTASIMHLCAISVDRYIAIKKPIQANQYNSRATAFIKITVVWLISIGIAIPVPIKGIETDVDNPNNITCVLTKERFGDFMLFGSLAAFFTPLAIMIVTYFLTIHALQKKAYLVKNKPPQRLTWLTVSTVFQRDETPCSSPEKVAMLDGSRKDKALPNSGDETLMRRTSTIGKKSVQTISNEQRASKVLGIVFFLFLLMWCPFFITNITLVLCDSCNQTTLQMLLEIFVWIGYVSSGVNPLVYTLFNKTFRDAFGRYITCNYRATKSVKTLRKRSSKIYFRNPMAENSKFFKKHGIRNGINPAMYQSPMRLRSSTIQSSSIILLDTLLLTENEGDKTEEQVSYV
# Experimental protocol: FLIPR Ca2+ flux functional assay, 5-HT2B agonist activity
# Type: cell-based
# Test settings: agonist activity, Ca2+ flux, stably transfected CHO-K1 cells
Please go through the items and note down their Emax.
Expressed in %, but write only the number.

For CCN(CCc1c[nH]c2cccc(O)c12)CC(C)C , what is its reported Emax? 17.5

Given CCN(CCc1c[nH]c2ccccc12)CC(C)C , state its recorded Emax. 28

What measured Emax goes with CCC(C)N(CC)CCc1c[nH]c2ccccc12 (stereo not shown) ? 37.2

Suppose we examine the molecule CN(C)CCc1c[nH]c2ccc(OC(F)(F)F)cc12 ; what Emax value has been reported? -0.27

====

Task for the reader: assign each of the following compounds its reported pEC50.
# Tested on: 5-HT2A receptor (Homo sapiens, UniProt P28223)
# Construct: host or cells: HEK293
# Sequence (P28223 whole entry): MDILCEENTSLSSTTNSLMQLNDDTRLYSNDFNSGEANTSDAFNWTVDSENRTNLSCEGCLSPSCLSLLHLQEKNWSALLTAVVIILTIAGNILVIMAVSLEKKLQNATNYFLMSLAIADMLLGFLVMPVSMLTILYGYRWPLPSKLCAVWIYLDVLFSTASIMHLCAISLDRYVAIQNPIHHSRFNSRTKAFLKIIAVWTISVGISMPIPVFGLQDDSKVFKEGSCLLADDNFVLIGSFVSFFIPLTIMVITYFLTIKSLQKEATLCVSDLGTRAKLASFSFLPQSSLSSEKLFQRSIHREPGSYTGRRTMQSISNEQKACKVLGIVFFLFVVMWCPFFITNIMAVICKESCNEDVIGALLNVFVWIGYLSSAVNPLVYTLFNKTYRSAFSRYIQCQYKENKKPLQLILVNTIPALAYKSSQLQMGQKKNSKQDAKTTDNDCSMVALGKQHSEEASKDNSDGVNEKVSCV
# Experimental protocol: FLIPR Ca2+ flux functional assay, 5-HT2A agonist activity
# Format: cell-based
On this scale, pEC50 is minus log10 of a concentration expressed in M (mol/L).

Any idea what pEC50 came out for CN(C)CCc1c[nH]c2ccc(C(F)(F)F)cc12 on 5-HT2A receptor (Homo sapiens, UniProt P28223)? 6.73

Find pEC50 (5-HT2A receptor (Homo sapiens, UniProt P28223)) for the entry CN(C)CCc1c[nH]c2cccc(OC(F)(F)F)c12 7.28

Please state recorded pEC50 (tested on 5-HT2A receptor (Homo sapiens, UniProt P28223)) of CCN(CCc1c[nH]c2cccc(O)c12)CC(C)C 7.56

Form: Entry = CCN(CCc1c[nH]c2cccc(O)c12)C(C)C | System = 5-HT2A receptor (Homo sapiens, UniProt P28223) | pEC50 = ____ 7.70

5-HT2A receptor (Homo sapiens, UniProt P28223) / pEC50 / CCN(CCc1c[nH]c2ccc(OC)cc12)CC(C)C : value? 7.32

Report pEC50 for Cc1cccc2[nH]cc(CCN(C)C(C)C)c12 tested on 5-HT2A receptor (Homo sapiens, UniProt P28223). 7.40

Form entry - test system: 5-HT2A receptor (Homo sapiens, UniProt P28223); read-out: pEC50; compound: CCN(CCc1c[nH]c2cccc(OC)c12)C(C)C 6.92

API: value(readout=pEC50, system=5-HT2A receptor (Homo sapiens, UniProt P28223)) for record CCN(CCc1c[nH]c2cccc(OC)c12)CC(C)C 7.07

// fetch 5-HT2A receptor (Homo sapiens, UniProt P28223) pEC50 for CCC(C)N(CC)CCc1c[nH]c2ccccc12 (stereo not drawn) 6.83

What value of pEC50 on 5-HT2A receptor (Homo sapiens, UniProt P28223) does CCCN(C)CCc1c[nH]c2ccc(OC(F)(F)F)cc12 have? 6.18

Param readout= pEC50; system= 5-HT2A receptor (Homo sapiens, UniProt P28223); entry= CCC(C)N(CC)CCc1c[nH]c2cccc(O)c12 (stereo not drawn) ; returns value. 7.27

State its pEC50 on 5-HT2A receptor (Homo sapiens, UniProt P28223): COc1cccc2[nH]cc(CCN(C)CC(C)C)c12 7.04

Could you share what pEC50 was measured for COc1ccc2[nH]cc(CCN(C)C3CCC3)c2c1 , tested on 5-HT2A receptor (Homo sapiens, UniProt P28223)? 7.60

Which measured pEC50 belongs to CN(C)CCc1c[nH]c2ccc(OC(F)(F)F)cc12 , tested on 5-HT2A receptor (Homo sapiens, UniProt P28223)? 6.77

Report pEC50 for CCC(C)N(C)CCc1c[nH]c2ccccc12 (stereo not drawn) tested on 5-HT2A receptor (Homo sapiens, UniProt P28223). 7.04

pEC50 of CCC(C)N(CC)CCc1c[nH]c2ccc(OC)cc12 (stereo not drawn) on 5-HT2A receptor (Homo sapiens, UniProt P28223)? 7.48

Item: COc1ccc2[nH]cc(CCN(C)C3CC3)c2c1 Test system: 5-HT2A receptor (Homo sapiens, UniProt P28223) Read-out: pEC50 Value: ? 8.32

Form entry - test system: 5-HT2A receptor (Homo sapiens, UniProt P28223); read-out: pEC50; compound: CCC(C)N(CC)CCc1c[nH]c2cccc(OC)c12 (stereo not drawn) 7.15

Lab note: need pEC50 for CCCN(CCc1c[nH]c2ccc(OC)cc12)C(C)C on 5-HT2A receptor (Homo sapiens, UniProt P28223), anyone have it? 7.86

Give pEC50 (5-HT2A receptor (Homo sapiens, UniProt P28223)) of the following compound: CCCN(CCc1c[nH]c2cccc(OC)c12)C(C)C 7.44

Give recorded pEC50 with 5-HT2A receptor (Homo sapiens, UniProt P28223) for the following compound: CCC(C)N(C)CCc1c[nH]c2ccc(OC)cc12 (stereo not drawn) 7.43

====

# Tested on: 5-HT2C receptor (Homo sapiens)
# Construct: host or cells: HEK293
# Experimental protocol: FLIPR Ca2+ flux functional assay, 5-HT2C agonist activity
# Assay type: cell-based
# Test settings: agonist activity, Ca2+ flux, stably transfected HEK293 cells
Observation type: Emax (%)
Give the number; % is assumed, so skip it.

I have this molecule here, CCN(CCc1c[nH]c2ccccc12)CC(C)C , and I need its recorded Emax. 58.4

Look at this molecule and give its reported Emax. CCC(C)N(CC)CCc1c[nH]c2ccccc12 (stereo not shown) 61.5

Suppose we examine the molecule CCN(CCc1c[nH]c2cccc(O)c12)CC(C)C ; what Emax value has been reported? 95.4

Param item = CCN(CCc1c[nH]c2cccc(OC)c12)CC(C)C ; retrieve measured Emax. 96.2

Need Emax, item COc1ccc2[nH]cc(CCN(C)C3COC3)c2c1 59.9

# Emax lookup, item CN(C)CCc1c[nH]c2ccc(OC(F)(F)F)cc12 55.1

Recorded Emax for CN(C)CCc1c[nH]c2cccc(OC(F)(F)F)c12 , please? 66.6

Field request: Emax | item: COc1ccc2[nH]cc(CCN(C)C3CC3)c2c1 89.2

Please look up its Emax: CCCN(CCc1c[nH]c2ccc(OC)cc12)C(C)C 82.1

Return reported Emax; argument: CCN(CCc1c[nH]c2cccc(O)c12)C(C)C 83.3

====

Field: Emax. Provide a value for each of the molecules that follow.
# Tested on: 5-HT2C receptor (Homo sapiens)
# Construct: host or cells: HEK293
# Sequence (P28335 33-458): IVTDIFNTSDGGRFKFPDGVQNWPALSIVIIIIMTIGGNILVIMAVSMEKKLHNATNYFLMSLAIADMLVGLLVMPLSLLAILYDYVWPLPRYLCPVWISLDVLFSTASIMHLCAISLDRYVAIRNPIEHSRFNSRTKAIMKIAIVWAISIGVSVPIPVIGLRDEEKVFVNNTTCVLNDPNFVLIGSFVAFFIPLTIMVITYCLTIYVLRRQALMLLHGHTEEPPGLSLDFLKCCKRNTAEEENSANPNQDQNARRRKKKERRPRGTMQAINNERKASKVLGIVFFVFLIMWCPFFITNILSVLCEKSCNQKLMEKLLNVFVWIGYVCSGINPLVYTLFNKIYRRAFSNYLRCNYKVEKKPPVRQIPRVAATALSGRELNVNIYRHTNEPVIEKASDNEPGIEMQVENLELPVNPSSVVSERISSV
# Experimental protocol: FLIPR Ca2+ flux functional assay, 5-HT2C agonist activity
# Format: cell-based
# Test settings: agonist activity, Ca2+ flux, stably transfected HEK293 cells
The reply should contain only the number, in %.

What Emax value was documented for this molecule, CCC(C)N(CC)CCc1c[nH]c2cccc(O)c12 (stereo not shown) ? 55.2

Given CCN(CCc1c[nH]c2cccc(OC)c12)C(C)C , state its recorded Emax. 77.8

Would you mind telling me what Emax value was observed for COc1cccc2[nH]cc(CCN(C)CC(C)C)c12 ? 78.5

Entry CCCN(C)CCc1c[nH]c2ccc(OC(F)(F)F)cc12 has what Emax? 81.7

Requested field: Emax. Item: CCC(C)N(C)CCc1c[nH]c2ccc(OC)cc12 (stereo not shown) 59.5

// Emax lookup, key: CCCN(CCc1c[nH]c2cccc(O)c12)C(C)C 92

Report Emax for CCC(C)N(C)CCc1c[nH]c2cccc(OC)c12 (stereo not shown) please. 21.7

Which Emax is listed for CCCN(CCc1c[nH]c2cccc(OC)c12)C(C)C ? 87.1

Which Emax value belongs to COc1ccc2[nH]cc(CCN(C)C3CCC3)c2c1 ? 75.9

For the molecule shown here, CCC(C)N(CC)CCc1c[nH]c2ccc(OC)cc12 (stereo not shown) , give the reported Emax. 76.8

====

I'd be grateful if you could share measured EC50 for these entries.
# Tested on: 5-HT2A receptor (Homo sapiens, UniProt P28223)
# Construct: host or cells: HEK293
# Experimental protocol: FLIPR Ca2+ flux functional assay, 5-HT2A agonist activity
# Format: cell-based
# Description: Functional Assays 5-HT2A, 5-HT2B and 5-HT2C Receptors Activity at 5-HT2A, 5-HT2B and 5-HT2C receptors was determined using a FLIPR Ca2+ flux assay at WuXi AppTec Co. Ltd. (Hong Kong) Discovery Biology Unit according to their standard protocols. […] 10 μL of references and compounds were then transferred from the compound plate into the cell plate and the fluorescent signal was read.
Your answer is read as nM, so omit the unit and give the number.

Please report the recorded EC50 for CCN(CCc1c[nH]c2ccccc12)CC(C)C . 389

Any idea what its EC50 is? The molecule is CCC(C)N(C)CCc1c[nH]c2cccc(OC)c12 (stereo not drawn) 124

What EC50 value was documented for this molecule, CCCN(CCc1c[nH]c2cccc(O)c12)C(C)C ? 13.8
